- Target under test: CB1R (Mus musculus, UniProt P47746)
- Sequence (P47746 whole entry): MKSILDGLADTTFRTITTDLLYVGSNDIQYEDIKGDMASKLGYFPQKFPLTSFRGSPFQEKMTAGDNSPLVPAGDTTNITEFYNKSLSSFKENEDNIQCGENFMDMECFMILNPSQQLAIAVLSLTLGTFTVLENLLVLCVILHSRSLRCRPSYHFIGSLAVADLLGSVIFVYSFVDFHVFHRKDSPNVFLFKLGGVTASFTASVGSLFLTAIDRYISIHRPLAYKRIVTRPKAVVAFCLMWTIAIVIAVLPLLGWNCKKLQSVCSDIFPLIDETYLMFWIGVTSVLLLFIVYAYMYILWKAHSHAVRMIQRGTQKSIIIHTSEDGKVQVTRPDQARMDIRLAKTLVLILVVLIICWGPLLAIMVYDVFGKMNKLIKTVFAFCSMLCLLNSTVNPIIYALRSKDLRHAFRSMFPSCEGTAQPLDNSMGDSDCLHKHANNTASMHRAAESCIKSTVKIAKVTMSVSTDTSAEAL
- Experiment summary: Radioligand saturation binding assay on brain membrane homogenates
- Condition: read-out: Kd ± S.E.M.; CB1^IEC-/- mouse brain membrane homogenate; 30°C, 60 min
Measured metric: Kd

compound="CCCCCCC(C)(C)c1ccc([C@@H]2C[C@H](O)CC[C@H]2CCCO)c(O)c1 [[^3H]-CP55.940]" target_under_test="CB1R (Mus musculus, UniProt P47746)" measured_result="1.7 nM"
